target.entity: Recombinant human HDAC4 (Homo sapiens)
Construct: purchased BPS Bioscience Inc
Sequence (P56524 whole entry): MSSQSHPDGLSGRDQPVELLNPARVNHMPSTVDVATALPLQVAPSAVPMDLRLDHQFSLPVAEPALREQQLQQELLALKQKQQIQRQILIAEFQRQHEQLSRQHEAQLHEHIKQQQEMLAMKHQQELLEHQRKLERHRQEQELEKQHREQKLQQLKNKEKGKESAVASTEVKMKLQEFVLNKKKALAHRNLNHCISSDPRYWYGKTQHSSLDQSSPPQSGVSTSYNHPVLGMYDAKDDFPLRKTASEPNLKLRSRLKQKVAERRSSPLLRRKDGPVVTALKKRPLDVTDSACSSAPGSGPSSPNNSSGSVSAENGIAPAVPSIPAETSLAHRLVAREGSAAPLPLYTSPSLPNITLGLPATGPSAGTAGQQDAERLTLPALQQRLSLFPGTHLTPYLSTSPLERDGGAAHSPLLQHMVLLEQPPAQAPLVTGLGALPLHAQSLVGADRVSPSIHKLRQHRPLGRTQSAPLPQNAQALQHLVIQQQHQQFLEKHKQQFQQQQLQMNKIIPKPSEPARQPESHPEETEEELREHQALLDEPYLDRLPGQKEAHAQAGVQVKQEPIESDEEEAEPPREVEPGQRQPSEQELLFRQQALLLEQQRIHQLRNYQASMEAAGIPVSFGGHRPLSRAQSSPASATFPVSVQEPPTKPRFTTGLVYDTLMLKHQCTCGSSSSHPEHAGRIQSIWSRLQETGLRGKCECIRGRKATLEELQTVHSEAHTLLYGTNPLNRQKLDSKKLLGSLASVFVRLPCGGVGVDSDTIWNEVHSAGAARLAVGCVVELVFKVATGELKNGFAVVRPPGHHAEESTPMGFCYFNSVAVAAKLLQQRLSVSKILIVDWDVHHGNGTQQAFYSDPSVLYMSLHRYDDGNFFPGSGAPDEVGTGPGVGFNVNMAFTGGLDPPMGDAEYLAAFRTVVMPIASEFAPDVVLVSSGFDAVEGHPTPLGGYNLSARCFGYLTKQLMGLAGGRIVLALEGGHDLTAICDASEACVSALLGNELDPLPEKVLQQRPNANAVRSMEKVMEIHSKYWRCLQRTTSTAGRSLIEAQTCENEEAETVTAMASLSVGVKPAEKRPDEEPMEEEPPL
test.method.notes: HDAC-Glo I/II assay, HDAC4
Type: biochemical
measurement.name: IC50 (nM)

1. C/C=C1\NC(=O)[C@H]2CSSCC/C=C/[C@H](CC(=O)N[C@H](C(C)C)C(=O)N2)OC(=O)[C@H](C(C)C)NC1=O [FK228, romidepsin, reference compound]: 2370

###

# Class I vs. Class IIa Ratio HDAC 1/HDAC6 per record follows
target.entity: Recombinant human HDAC1 (Homo sapiens, UniProt Q13547)
Construct: purchased BPS Bioscience Inc
Sequence (Q13547 whole entry): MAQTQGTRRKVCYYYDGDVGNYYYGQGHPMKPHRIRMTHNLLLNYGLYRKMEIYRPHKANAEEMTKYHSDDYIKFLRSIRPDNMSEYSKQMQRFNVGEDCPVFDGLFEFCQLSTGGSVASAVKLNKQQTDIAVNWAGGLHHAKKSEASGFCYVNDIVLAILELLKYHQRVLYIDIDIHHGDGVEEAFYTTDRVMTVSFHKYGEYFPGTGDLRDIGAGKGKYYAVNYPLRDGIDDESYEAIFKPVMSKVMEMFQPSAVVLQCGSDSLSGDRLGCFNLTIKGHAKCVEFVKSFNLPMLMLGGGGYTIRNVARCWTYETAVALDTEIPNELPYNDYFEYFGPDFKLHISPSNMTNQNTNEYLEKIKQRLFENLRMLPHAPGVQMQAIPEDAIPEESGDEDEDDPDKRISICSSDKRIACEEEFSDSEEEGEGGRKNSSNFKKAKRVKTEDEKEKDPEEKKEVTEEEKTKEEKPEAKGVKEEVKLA
test.method.notes: HDAC-Glo I/II assay, HDAC1
Assay type: biochemical
reported.conditions: ratio of IC50 values
Description: The purified compounds of all fragments and natural product derivatives were evaluated for inhibitory effects on three different classes of HDAC proteins (class I, IIa, and IIb). […] All activity was determined by using a fluorescence-based in vitro assay. Class I HDAC proteins that were evaluated were HDAC1, HDAC2, HDAC3, HDAC8, HDAC4, and HDAC6. Class IIa HDAC protein were HDAC4 and the Class IIb HDAC protein were HDAC6. […]
measurement.name: Class I vs. Class IIa Ratio HDAC 1/HDAC6

1. CCCC[C@H]1NC(=O)C[C@H]2/C=C/CCSSC[C@@H](NC1=O)C(=O)N[C@H](C(C)CC)[C@@H](O)CC(=O)O2 (some centres unmarked) [TDP-B, Thailandepsin B, reference compound]: 0.0034
2. CCC(C)[C@H]1NC(=O)[C@H]2CSSCC/C=C/[C@H](CC(=O)N[C@H](CCSC)C(=O)N2)OC(=O)C[C@@H]1OCCC=O (some centres unmarked): 0.0064
3. CCC(C)[C@H]1NC(=O)[C@H]2CSSCC/C=C/[C@H](CC(=O)N[C@H](CCSC)C(=O)N2)OC(=O)C[C@@H]1OC(=O)c1ccccc1 (some centres unmarked): 0.0020
4. CCC(C)[C@H]1NC(=O)[C@H]2CSSCC/C=C/[C@H](CC(=O)N[C@H](CCSC)C(=O)N2)OC(=O)C[C@@H]1O (some centres unmarked) [TDP-A, Thailandepsin A, reference compound]: 0.0088
5. CCC(C)[C@H]1NC(=O)[C@H]2CSSCC/C=C/[C@H](CC(=O)N[C@H](CCSC)C(=O)N2)OC(=O)C[C@@H]1OC(C)=O (some centres unmarked): 0.0020
